- tested_target: BTK (Homo sapiens (Human), UniProt Q06187)
- Sequence (Q06187 whole entry): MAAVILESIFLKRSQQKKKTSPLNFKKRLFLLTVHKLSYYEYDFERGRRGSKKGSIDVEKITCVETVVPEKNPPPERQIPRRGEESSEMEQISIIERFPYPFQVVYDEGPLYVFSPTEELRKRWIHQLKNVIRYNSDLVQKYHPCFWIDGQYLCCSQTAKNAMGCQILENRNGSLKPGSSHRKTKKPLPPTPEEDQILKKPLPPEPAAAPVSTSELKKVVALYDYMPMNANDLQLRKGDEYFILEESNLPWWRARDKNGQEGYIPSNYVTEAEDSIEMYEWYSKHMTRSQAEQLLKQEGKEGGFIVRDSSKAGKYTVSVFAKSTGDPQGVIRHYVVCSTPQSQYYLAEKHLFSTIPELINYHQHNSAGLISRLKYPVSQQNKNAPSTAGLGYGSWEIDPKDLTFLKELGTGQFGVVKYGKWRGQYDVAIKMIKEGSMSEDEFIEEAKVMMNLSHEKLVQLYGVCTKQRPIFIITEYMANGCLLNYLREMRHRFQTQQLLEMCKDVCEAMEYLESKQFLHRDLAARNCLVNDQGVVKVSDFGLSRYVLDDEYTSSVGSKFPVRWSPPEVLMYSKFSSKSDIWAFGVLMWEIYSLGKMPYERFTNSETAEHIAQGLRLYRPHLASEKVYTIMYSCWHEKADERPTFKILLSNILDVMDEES
- procedure_summary: Btk in vitro inhibitory activity (one of Method A TR-FRET, Method B electrophoretic mobility shift, Method C radiometric filter binding)
- Type: biochemical
- details: determined using one of the methods of Example 355a, 355b and 355c; read-out: BTK IC50
# IC50 per record follows

CN1CCN([C@@H]2CCCN(c3cnc(C(N)=O)c(Nc4ccccc4)n3)C2)C1=O : 10 to 100 nM
CN(C)C(=O)N[C@@H]1CCCN(c2cnc(C(N)=O)c(Nc3cnn(C4CCN(C(=O)C5CC5)CC4)c3)n2)C1 : 10 to 100 nM

May I ask what IC50 has been recorded for CN(C)C(=O)N[C@@H]1CCCN(c2nnc(C(N)=O)c(Nc3ccc(C4CCN(C5CCCC5)CC4)cc3)n2)C1 ?
< 10 nM

Sample CN(C)C(=O)N[C@@H]1CCCN(c2cnc(C(N)=O)c(Nc3ccc(N4CCN(C5CCCC5)CC4)cc3)n2)C1 — what was its IC50?
< 10 nM

Given NC(=O)c1ncc(N2CCC[C@@H](NC(=O)c3ccccc3)C2)nc1Nc1ccc(C2CCN(C3CCCC3)CC2)cc1 , state its recorded IC50.
< 10 nM

Requested read-out: IC50. Entry: CCC(=O)N1CCC[C@@H](Nc2nnc(C(N)=O)c(Nc3ccc(C(=O)N4CCOCC4)cc3)n2)C1
< 10 nM

Need IC50 of NC(=O)c1ncc(N2CCC[C@H]3NCC[C@H]32)nc1Nc1ccc(C2CCN(C3CCCC3)CC2)cc1 , thanks.
10 to 100 nM

If you can, please state the reported IC50 value of CCC(=O)N1CCC(C)(c2ccc(Nc3nc(N4CCC[C@@H](NC(=O)N(C)C)C4)cnc3C(N)=O)cc2)CC1 .
< 10 nM
